Target: ΔF508-CFTR (Homo sapiens (Human), UniProt P13569, DEL508-508)
Sequence (P13569 other isoform, or with tags, fused parts or gaps del F508-F508): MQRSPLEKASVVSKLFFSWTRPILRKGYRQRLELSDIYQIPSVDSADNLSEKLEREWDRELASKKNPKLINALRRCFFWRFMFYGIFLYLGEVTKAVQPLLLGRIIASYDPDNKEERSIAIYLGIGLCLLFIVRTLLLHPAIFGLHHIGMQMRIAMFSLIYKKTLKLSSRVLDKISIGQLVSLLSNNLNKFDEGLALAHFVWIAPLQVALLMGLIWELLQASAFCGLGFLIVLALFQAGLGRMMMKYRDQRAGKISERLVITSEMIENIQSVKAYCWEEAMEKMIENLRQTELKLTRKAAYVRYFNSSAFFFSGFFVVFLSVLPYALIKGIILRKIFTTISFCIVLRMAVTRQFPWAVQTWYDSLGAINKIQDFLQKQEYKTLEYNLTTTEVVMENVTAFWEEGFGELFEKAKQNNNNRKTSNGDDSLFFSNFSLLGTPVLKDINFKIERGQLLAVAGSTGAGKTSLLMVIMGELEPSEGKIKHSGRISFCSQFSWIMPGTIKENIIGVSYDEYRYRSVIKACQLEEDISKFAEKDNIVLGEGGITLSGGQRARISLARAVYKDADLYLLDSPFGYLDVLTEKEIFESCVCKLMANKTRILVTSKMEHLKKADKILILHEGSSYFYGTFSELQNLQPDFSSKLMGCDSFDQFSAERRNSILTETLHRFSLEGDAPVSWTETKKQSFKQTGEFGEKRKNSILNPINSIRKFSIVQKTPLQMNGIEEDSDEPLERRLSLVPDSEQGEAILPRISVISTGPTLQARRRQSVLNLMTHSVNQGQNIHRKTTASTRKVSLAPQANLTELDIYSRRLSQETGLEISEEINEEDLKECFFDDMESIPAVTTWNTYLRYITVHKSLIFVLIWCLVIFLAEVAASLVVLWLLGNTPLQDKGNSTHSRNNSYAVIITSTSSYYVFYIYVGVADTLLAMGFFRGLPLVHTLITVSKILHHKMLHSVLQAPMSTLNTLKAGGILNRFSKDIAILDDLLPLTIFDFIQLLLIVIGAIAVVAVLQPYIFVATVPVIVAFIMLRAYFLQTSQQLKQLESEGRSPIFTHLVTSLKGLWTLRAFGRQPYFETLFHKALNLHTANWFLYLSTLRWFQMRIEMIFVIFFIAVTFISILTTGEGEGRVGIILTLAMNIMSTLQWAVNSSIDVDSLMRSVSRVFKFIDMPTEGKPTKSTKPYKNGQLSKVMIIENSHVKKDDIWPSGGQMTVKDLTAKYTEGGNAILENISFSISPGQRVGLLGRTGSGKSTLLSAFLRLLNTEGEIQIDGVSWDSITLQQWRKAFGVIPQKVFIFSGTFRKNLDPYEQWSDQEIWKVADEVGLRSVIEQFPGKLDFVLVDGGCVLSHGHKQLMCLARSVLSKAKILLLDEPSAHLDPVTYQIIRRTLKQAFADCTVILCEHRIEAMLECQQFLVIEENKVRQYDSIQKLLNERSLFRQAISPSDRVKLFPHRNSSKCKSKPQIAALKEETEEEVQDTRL
Test: Membrane potential optical assay, identification of correction compounds
Assay type: cell-based
Details: read-out: Binned Max Efficacy
property: Emax

Use the examples below as a reference point.
{"compound": "CC(C)(CO)c1cc2cc(NC(=O)C3(c4ccc5c(c4)OC(F)(F)O5)CC3)c(F)cc2n1C[C@@H](O)CO [Compound 315]", "Emax": "> 100%"}
{"compound": "CC(C)(C)c1cc2cc(NC(=O)C3(c4ccc5c(c4)OCO5)CC3)c(F)cc2n1C[C@@H](O)CO [Compound 318]", "Emax": "> 100%"}
{"compound": "CC(C)(C)c1cc2cc(NC(=O)C3(c4ccc(O)c(O)c4)CC3)ccc2n1C[C@@H](O)CO [Compound 321]", "Emax": "25 to 100%"}
{"compound": "CC(C)(CO)c1cc2cc(NC(=O)C3(c4ccc5c(c4)OC(F)(F)O5)CC3)c(F)cc2[nH]1 [Compound 320]", "Emax": "25 to 100%"}
{"compound": "CC(C)(C)c1cc2cc(NC(=O)C3(c4ccc5c(c4)CCC5)CC3)ccc2n1C[C@@H](O)CO [Compound 307]", "Emax": "> 100%"}

Attention now shifts to the item below.
Emax measured on CC(C)(CCO)c1cc2cc(NC(=O)C3(c4ccc5c(c4)OC(F)(F)O5)CC3)c(F)cc2n1C[C@@H](O)CO [Compound 311] = > 100%

====

Target: ΔF508-CFTR (Homo sapiens (Human), UniProt P13569, DEL508-508)
Experiment: Membrane potential optical assay, identification of correction compounds
Format: cell-based
Conditions: read-out: EC50
compounds and their reported pEC50
Quick note: pEC50 means taking -log10 of the concentration in moles per liter.

{"compound": "CC(C)(CCO)c1cc2cc(NC(=O)C3(c4ccc5c(c4)OC(F)(F)O5)CC3)c(F)cc2n1C[C@@H](O)CO [Compound 311]", "pEC50": 7.09}

// pEC50 (ΔF508-CFTR (Homo sapiens (Human), UniProt P13569, DEL508-508)) for CC(C)(C)c1cc2cc(NC(=O)C3(c4ccc5c(c4)OCO5)CC3)c(F)cc2n1C[C@@H](O)CO [Compound 318] = 7.18

// pEC50 (ΔF508-CFTR (Homo sapiens (Human), UniProt P13569, DEL508-508)) for CC(C)(C)c1cc2cc(NC(=O)C3(c4ccc5c(c4)OCO5)CC3)c(F)cc2n1C[C@@H](O)CO [Compound 310] = 6.80

Cited source for all entries: patent US10022352B2
